Assay: Metabolic stability in mouse liver microsomes
Format: in vitro ADME
Conditions: male, CD-1, mouse, liver microsomes, pH 7.4; MLM 0.5 mg/mL, 1 μM, n = 2; read-out: t1/2 ± SD
readoutName: half-life at 1 h, 1 µM (min)
# output: bare number, implied unit min

CCOc1ccc2ccc(=O)oc2c1 [Compound 7-EC, 7-ethoxycoumarin, reference compound] | 2

Req: Form field: reported half-life at 1 h, 1 µM of COc1cc(C(=O)c2cn(-c3ncccn3)cc2-c2ccco2)cc(OC)c1OC
Resp: 3

----------
Experiment: Metabolic stability in human liver microsomes
Format: in vitro ADME
Conditions: human, liver microsomes, pH 7.4; HLM 0.5 mg/mL, 1 μM, n = 2; read-out: t1/2 ± SD
readoutName: half-life at 1 h, 1 µM (min)
Respond numerically; units are min and should not be typed.

Req: # lookup: half-life at 1 h, 1 µM of COc1cc(C(=O)c2cn(-c3ncccn3)cc2-c2ccco2)cc(OC)c1OC [Compound 15]
Resp: 38.7

----------
# reported Inhib. colch. binding 1-5-5 (% ± SD); entries follow
Test system: tubulin
Experiment: Inhibition of [3H]colchicine binding to tubulin
Settings: inhibitor at 1:5:5 μM
Use % as the unit, but write only the number.

Below, 5 compounds whose answers are already recorded.
COc1cc(C(=O)c2cn(-c3cccnc3)cc2-c2ccccc2)cc(OC)c1OC | 52
COc1cc(C(=O)c2cn(-c3ccccn3)cc2-c2ccccc2)cc(OC)c1OC | 92
COc1cc(C(=O)c2ccn(-c3ncccn3)c2)cc(OC)c1OC | 82
COc1cc(C(=O)c2cn(-c3cncnc3)cc2-c2ccccc2)cc(OC)c1OC | 4.7
COc1cc(C(=O)c2cn(-c3cncnc3)cc2-c2ccco2)cc(OC)c1OC | 19

The record that follows has no Inhib. colch. binding 1-5-5 (% ± SD) shown yet.
Req: Lab request: please report Inhib. colch. binding 1-5-5 (% ± SD) under test system tubulin for COc1cc(C(=O)c2ccn(-c3cccnc3)c2)cc(OC)c1OC
Resp: 38
